These entries and their values trace back to patent US20250197409A1.

Reported remaining activity at 0.1 µM values for the following compounds.
target: androgen receptor (Homo sapiens, UniProt P10275, T878A); construct: host or cells: LNCaP.FGC; test: Androgen receptor degradation assay using Western blot analysis; assay type: cell-based; settings: 24 h, read-out: Androgen Receptor Remaining (%), LNCaP.FGC cells, 100 nM, 24 hr, normalized to GAPDH, untreated cells = 100%
Sequence (P10275 whole entry T878A): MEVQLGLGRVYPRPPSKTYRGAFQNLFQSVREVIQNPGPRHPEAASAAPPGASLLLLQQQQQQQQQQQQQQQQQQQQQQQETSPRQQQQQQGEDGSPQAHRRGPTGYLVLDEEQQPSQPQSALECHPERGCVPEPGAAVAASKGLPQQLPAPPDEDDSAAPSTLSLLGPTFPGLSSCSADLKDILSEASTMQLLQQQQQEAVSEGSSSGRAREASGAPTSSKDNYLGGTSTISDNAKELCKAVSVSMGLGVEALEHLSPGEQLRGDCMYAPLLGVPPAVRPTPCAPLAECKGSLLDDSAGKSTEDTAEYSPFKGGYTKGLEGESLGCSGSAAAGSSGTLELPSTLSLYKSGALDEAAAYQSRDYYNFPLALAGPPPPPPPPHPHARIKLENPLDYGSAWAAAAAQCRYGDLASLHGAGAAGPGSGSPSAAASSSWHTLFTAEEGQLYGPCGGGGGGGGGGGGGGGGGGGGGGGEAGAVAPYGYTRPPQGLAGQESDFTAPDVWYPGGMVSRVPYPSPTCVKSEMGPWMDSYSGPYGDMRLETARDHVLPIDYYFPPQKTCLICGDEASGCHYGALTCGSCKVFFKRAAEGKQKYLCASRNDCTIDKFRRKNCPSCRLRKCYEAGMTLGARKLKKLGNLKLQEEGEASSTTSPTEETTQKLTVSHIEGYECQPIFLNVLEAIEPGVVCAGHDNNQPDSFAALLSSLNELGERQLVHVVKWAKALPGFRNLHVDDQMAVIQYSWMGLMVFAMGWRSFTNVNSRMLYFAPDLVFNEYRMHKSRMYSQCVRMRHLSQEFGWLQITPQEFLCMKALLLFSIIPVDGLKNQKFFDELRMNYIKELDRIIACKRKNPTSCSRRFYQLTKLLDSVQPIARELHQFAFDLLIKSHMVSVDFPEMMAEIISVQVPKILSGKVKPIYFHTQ
Sequence (Q96SW2 whole entry partner): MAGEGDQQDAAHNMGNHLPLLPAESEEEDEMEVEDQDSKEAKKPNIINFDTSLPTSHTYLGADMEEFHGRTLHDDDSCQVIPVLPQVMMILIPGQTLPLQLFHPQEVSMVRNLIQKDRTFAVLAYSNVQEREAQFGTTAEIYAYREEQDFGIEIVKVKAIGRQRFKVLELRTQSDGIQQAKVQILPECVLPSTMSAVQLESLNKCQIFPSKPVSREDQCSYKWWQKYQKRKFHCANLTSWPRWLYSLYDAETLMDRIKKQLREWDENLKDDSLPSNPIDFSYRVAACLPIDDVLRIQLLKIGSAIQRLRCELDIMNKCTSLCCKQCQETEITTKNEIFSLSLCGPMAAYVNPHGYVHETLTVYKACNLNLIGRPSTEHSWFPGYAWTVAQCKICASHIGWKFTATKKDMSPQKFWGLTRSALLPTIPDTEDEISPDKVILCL
Report the figure in % without appending any unit label.

Past entries and their recorded results:
compound	unit abbrev	remaining activity at 0.1 µM
CCn1c2c(c3ccc(OCCCN4CCN(c5ccc(C(=O)N[C@H]6CC[C@H](Oc7ccc(C#N)c(Cl)c7)CC6)nn5)CC4)cc31)C(=O)N(C1CCC(=O)NC1=O)C2=O (stereo partly shown) [Compound 29]	%	31
CCn1c2c(c3ccc(OCCOC4CCC5(CC4)CN(c4ccc(C(=O)N[C@H]6CC[C@H](Oc7ccc(C#N)c(Cl)c7)CC6)nn4)C5)cc31)C(=O)N(C1CCC(=O)NC1=O)C2=O (stereo partly shown) [Compound 152]	%	45

Ask: # return recorded remaining activity at 0.1 µM for entry CCn1c2c(c3cc(OCCN4CCN(c5ccc(C(=O)N[C@H]6C(C)(C)[C@H](Oc7ccc(C#N)c(Cl)c7)C6(C)C)cc5)CC4)ccc31)C(=O)N(C1CCC(=O)NC1=O)C2=O (stereo partly shown) [Compound 4]
Result: 66

Ask: # return recorded remaining activity at 0.1 µM for entry CCn1c2c(c3ccc(OCCOC4CC5(CCN(c6ccc(C(=O)N[C@H]7CC[C@H](Oc8ccc(C#N)c(Cl)c8)CC7)nn6)CC5)C4)cc31)C(=O)N(C1CCC(=O)NC1=O)C2=O (stereo partly shown) [Compound 147]
Result: 46

Ask: # return recorded remaining activity at 0.1 µM for entry CCn1c2c(c3cc(OCCN4CCC(C#Cc5ccc(C(=O)NC6C(C)(C)C(Oc7ccc(C#N)c(Cl)c7)C6(C)C)cc5)CC4)ccc31)C(=O)N(C1CCC(=O)NC1=O)C2=O (stereo not shown) [Compound 139]
Result: 52

Ask: # return recorded remaining activity at 0.1 µM for entry CCn1c2c(c3ccc(OCCCN4CCN(c5ccc(C(=O)N[C@H]6CC[C@H](Oc7ccc(C#N)c(Cl)c7)CC6)nn5)CC4=O)cc31)C(=O)N(C1CCC(=O)NC1=O)C2=O (stereo partly shown) [Compound 151]
Result: 57

Ask: # return recorded remaining activity at 0.1 µM for entry CCn1c2c(c3ccc(OC(=O)NC4CCN(c5ccc(C(=O)N[C@H]6CC[C@H](N(C)c7ccc(C#N)c(Cl)c7)CC6)nn5)CC4)cc31)C(=O)N(C1CCC(=O)NC1=O)C2=O (stereo partly shown) [Compound 144]
Result: 86

Ask: # return recorded remaining activity at 0.1 µM for entry CCn1c2c(c3ccc(OCCCCN4CCCN(c5ccc(C(=O)N[C@H]6CC[C@H](N(C)c7ccc(C#N)c(Cl)c7)CC6)nn5)CC4)cc31)C(=O)N(C1CCC(=O)NC1=O)C2=O (stereo partly shown) [Compound 112]
Result: 32

Ask: # return recorded remaining activity at 0.1 µM for entry CCn1c2c(c3ccc(OCCCN4CCN(c5ccc(C(=O)N[C@H]6C(C)(C)[C@H](Oc7ccc(C#N)c(Cl)c7)C6(C)C)nn5)CC4)cc31)C(=O)N(C1CCC(=O)NC1=O)C2=O (stereo partly shown) [Compound 37]
Result: 55

Ask: # return recorded remaining activity at 0.1 µM for entry CC[C@H]1CN(CCCOc2ccc3c4c(n(CC)c3c2)C(=O)N(C2CCC(=O)NC2=O)C4=O)CCN1c1ccc(C(=O)N[C@H]2CC[C@H](Oc3ccc(C#N)c(Cl)c3)CC2)nn1 (stereo partly shown) [Compound 60]
Result: 57
